- Target or system: SARS-CoV-2 3CLpro (Severe acute respiratory syndrome coronavirus 2, UniProt P0DTD1)
- Protocol text: biochemical
- Assay type: biochemical
- Set-up: unit not given here
- Condition summary: sheet LOPAC_screen_w_protease; primary screen with protease, 5 µM; replicate 1
Reported property: Replicate_1
Enter a number only.

Entry CC[C@]1(O)C[C@@H]2CN(CCc3c([nH]c4ccccc34)[C@@](C(=O)OC)(c3cc4c(cc3OC)N(C)[C@H]3[C@@](O)(C(=O)OC)[C@H](OC(C)=O)[C@]5(CC)C=CCN6CC[C@]43[C@@H]65)C2)C1.O=S(=O)(O)O [Vinblastine sulfate salt] , Replicate_1 reported as 2.018

Entry CC(C)CC(NC(=O)C1OC1C(=O)O)C(=O)NCCCCNC(=N)N (centres unmarked) , Replicate_1 reported as 1.4489

Entry O.c1cnc2c(c1)ccc1cccnc12 [1,10-Phenanthroline monohydrate] , Replicate_1 reported as -0.05956

Entry `CN(C)c1ccc(/C=C2\C(=O)Nc3ccccc32)cc1` , Replicate_1 reported as 0.4934

Entry Brc1ccc([C@H]2CN3CCSC3=N2)cc1.O=C(O)C(=O)O [S(-)-p-Bromotetramisole oxalate] , Replicate_1 reported as 0.5493

Entry CCN(CC)CCCCCCCCOC(=O)c1cc(OC)c(OC)c(OC)c1.Cl [TMB-8 hydrochloride] , Replicate_1 reported as 0.4949

Entry Cl.NCCCCC(=O)O [5-Aminovaleric acid hydrochloride] , Replicate_1 reported as 0.7789

Entry Cc1c(C)c2c(c(C)c1O)CCC(C)(CN1CCN(c3cc(N4CCCC4)nc(N4CCCC4)n3)CC1)O2.Cl.Cl (centres unmarked) [U-83836 dihydrochloride] , Replicate_1 reported as -0.1864
